Field pIC50: reported value for Epidermal growth factor receptor (Homo sapiens); entries drawn from several documents.
pIC50: −log10 of the molar value.
reported.metric: pIC50

{"given.smiles": "C#Cc1cccc(Nc2ncnc3cc(OC(C)C)c4c(c23)OCCO4)c1", "reported.metric": "pIC50", "limit.qualifier": "=", "readout.value": 7.63}
{"given.smiles": "CCc1cc(Nc2ncc(Cl)c(Nc3ccc4nccnc4c3P(C)(C)=O)n2)c(OC)cc1N1CCC(N2CC(N(C)C)C2)CC1", "reported.metric": "pIC50", "limit.qualifier": "<", "readout.value": 6.30}
{"given.smiles": "O=C1CNCCN(Cc2ccn3ncnc(Nc4ccc5c(cnn5Cc5cccc(F)c5)c4)c23)C1", "reported.metric": "pIC50", "limit.qualifier": "=", "readout.value": 6.11}
{"given.smiles": "FC(F)(F)c1ccc(-n2cnnc2SCc2nc(COc3c(Cl)cccc3Cl)no2)cc1", "reported.metric": "pIC50", "limit.qualifier": "=", "readout.value": 5.20}
{"given.smiles": "O=CN/C=C/c1cc(O)ccc1O", "reported.metric": "pIC50", "limit.qualifier": "=", "readout.value": 5.52}
{"given.smiles": "C[C@@H](Nc1ncnc2sc(-c3ccc(C(N)=O)cc3)cc12)c1ccccc1", "reported.metric": "pIC50", "limit.qualifier": "=", "readout.value": 8.15}
{"given.smiles": "OCc1ccc(-c2cc3c(Nc4ccccc4)ncnc3s2)cc1", "reported.metric": "pIC50", "limit.qualifier": "=", "readout.value": 7.68}
{"given.smiles": "C=CC(=O)Nc1cccc(-n2c(=O)cc(C)c3cnc(Nc4ccc(N5CCN(C)CC5)cc4OCC)nc32)c1", "reported.metric": "pIC50", "limit.qualifier": "=", "readout.value": 6.77}
{"given.smiles": "FC(F)(F)c1cccc(Nc2ncnc3cc(OCCCN4CCOCC4)c4c(c23)OCCO4)c1", "reported.metric": "pIC50", "limit.qualifier": "=", "readout.value": 7.01}
